This collection of values is drawn from patent US20230203155A1.

target: T1, human ROR1-hFc fusion protein (extracellular domain) (human); experiment: SPR, ROR1-hFc on chip
T1 construct: Whole entry 'human ROR1-Fc (CHO)'; also called hROR1; huROR1-Fc
T1 sequence (chain, as listed by the source limits assumed): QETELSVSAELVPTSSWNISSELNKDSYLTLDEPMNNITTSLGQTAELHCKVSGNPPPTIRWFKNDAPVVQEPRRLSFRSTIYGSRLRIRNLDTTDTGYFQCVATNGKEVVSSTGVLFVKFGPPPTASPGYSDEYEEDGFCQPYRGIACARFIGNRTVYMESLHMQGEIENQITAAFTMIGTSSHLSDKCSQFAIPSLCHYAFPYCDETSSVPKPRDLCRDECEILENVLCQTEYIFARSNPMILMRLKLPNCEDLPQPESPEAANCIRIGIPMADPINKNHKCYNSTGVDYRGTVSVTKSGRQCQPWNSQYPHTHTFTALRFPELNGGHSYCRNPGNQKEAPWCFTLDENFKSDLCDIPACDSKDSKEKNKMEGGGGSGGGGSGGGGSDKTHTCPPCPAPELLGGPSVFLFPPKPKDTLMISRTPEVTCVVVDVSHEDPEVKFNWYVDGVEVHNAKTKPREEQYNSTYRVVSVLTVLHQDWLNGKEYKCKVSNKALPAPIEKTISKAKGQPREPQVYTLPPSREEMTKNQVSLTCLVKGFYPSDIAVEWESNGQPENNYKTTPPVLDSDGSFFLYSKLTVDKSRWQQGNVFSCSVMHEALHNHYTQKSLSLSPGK
So I've got a bunch of binders here, and I need their koff values.
Please answer using the number first and the unit second.

INSERT INTO measurements (binder, reported_property, experimental_result) VALUES
  ('P3A1-[G4S]5-P3A1 his myc (VNAR, VNAR homodimer by genetic fusion; also called P3A1-P3A1; P3A1 dimer) TRVDQTPRTATKETGESLTINCVLTDTSYGLYSTSWFRKNPGTTDWERMSIGGRYVESVNKGAKSFSLRIKDLTVADSATYYCKAREARHPWLRQWYDGAGTVLTVNGGGGSGGGGSGGGGSGGGGSGGGGSTRVDQTPRTATKETGESLTINCVLTDTSYGLYSTSWFRKNPGTTDWERMSIGGRYVESVNKGAKSFSLRIKDLTVADSATYYCKAREARHPWLRQWYDGAGTVLTVNQASGAHHHHHHGAEFEQKLISEEDL', 'koff', '0.000637 s⁻¹'),
  ('P3A1 his (VNAR, VNAR; also called P3A1 6xHis) VNAR: TRVDQTPRTATKETGESLTINCVLTDTSYGLYSTSWFRKNPGTTDWERMSIGGRYVESVNKGAKSFSLRIKDLTVADSATYYCKAREARHPWLRQWYDGAGTVLTVNQ', 'koff', '0.0206 s⁻¹'),
  ('P3A1 his myc (VNAR, VNAR; also called P3A1 6xHis myc) VNAR: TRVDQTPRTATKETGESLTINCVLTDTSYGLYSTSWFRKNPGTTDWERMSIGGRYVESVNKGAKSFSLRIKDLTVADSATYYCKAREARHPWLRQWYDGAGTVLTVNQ', 'koff', '0.025 s⁻¹');

Query: Given P3A1 dimer, no tag (VNAR) TRVDQTPRTATKETGESLTINCVLTDTSYGLYSTSWFRKNPGTTDWERMSIGGRYVESVNKGAKSFSLRIKDLTVADSATYYCKAREARHPWLRQWYDGAGTVLTVNGGGGSGGGGSGGGGSGGGGSGGGGSTRVDQTPRTATKETGESLTINCVLTDTSYGLYSTSWFRKNPGTTDWERMSIGGRYVESVNKGAKSFSLRIKDLTVADSATYYCKAREARHPWLRQWYDGAGTVLTVN , state its recorded koff.
Reply: 0.000598 s⁻¹
